These data points were gathered from patent US20240279318A1.

target: T1, AFP158/HLA-A*02:01 complex (human); assay: SPR, fold vs AS170036 VL1VH1;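 note: crude scFv muteins immobilised on a sensor chip, peptide–MHC complex passed over at several concentrations, binding then buffer-driven dissociation, KD estimated from on- and off-rates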
T1 construct: flowed as analyte in SPR
endpoint.name: Affinity increase (fold)

binder	endpoint.name	numeric.readout
AS170036 VL1VH1-57H98I108S (scFv, also called 63-AS170036 VL1VH1-57H98I108S) scFv: QSALTQPRSVSGSPGQSVTISCAGTSSDVGSENYVSWYQQHPGKAPKLMIYQVNKRASGVPDRFSGSKSGNTASLTISGLQAEDEADYYCASYRSSDINIVFGGGTKLTVLGGGGSGGGGSGGGGSEVQLVESGGGLVQPGGSLRLSCAASGFTFSSYAMSWVRQAPGKGLEWVSTINSGTGHPYYADSVKGRFTISRDNSKNTLYLQMNSLRAEDTAVYYCAKNFFDGSWFLSPPAMDYWGQGTLVTVSSHHHHHH	Affinity increase	26.4
AS170036 VL1VH1-56N98Q108S (scFv, also called 57-AS170036 VL1VH1-56N98Q108S) scFv: QSALTQPRSVSGSPGQSVTISCAGTSSDVGSENYVSWYQQHPGKAPKLMIYQVNKRASGVPDRFSGSKSGNTASLTISGLQAEDEADYYCASYRSSDQNIVFGGGTKLTVLGGGGSGGGGSGGGGSEVQLVESGGGLVQPGGSLRLSCAASGFTFSSYAMSWVRQAPGKGLEWVSTINSGTNSPYYADSVKGRFTISRDNSKNTLYLQMNSLRAEDTAVYYCAKNFFDGSWFLSPPAMDYWGQGTLVTVSSHHHHHH	Affinity increase	20.8
AS170036 VL1VH1-57H98F108S (scFv, also called 60-AS170036 VL1VH1-57H98F108S) scFv: QSALTQPRSVSGSPGQSVTISCAGTSSDVGSENYVSWYQQHPGKAPKLMIYQVNKRASGVPDRFSGSKSGNTASLTISGLQAEDEADYYCASYRSSDFNIVFGGGTKLTVLGGGGSGGGGSGGGGSEVQLVESGGGLVQPGGSLRLSCAASGFTFSSYAMSWVRQAPGKGLEWVSTINSGTGHPYYADSVKGRFTISRDNSKNTLYLQMNSLRAEDTAVYYCAKNFFDGSWFLSPPAMDYWGQGTLVTVSSHHHHHH	Affinity increase	66.2
AS170036 VL1VH1-57K98F108S (scFv, also called 69-AS170036 VL1VH1-57K98F108S) scFv: QSALTQPRSVSGSPGQSVTISCAGTSSDVGSENYVSWYQQHPGKAPKLMIYQVNKRASGVPDRFSGSKSGNTASLTISGLQAEDEADYYCASYRSSDFNIVFGGGTKLTVLGGGGSGGGGSGGGGSEVQLVESGGGLVQPGGSLRLSCAASGFTFSSYAMSWVRQAPGKGLEWVSTINSGTGKPYYADSVKGRFTISRDNSKNTLYLQMNSLRAEDTAVYYCAKNFFDGSWFLSPPAMDYWGQGTLVTVSSHHHHHH	Affinity increase	27
AS170036 VL1VH1-57H98I108D (scFv, also called 62-AS170036 VL1VH1-57H98I108D) scFv: QSALTQPRSVSGSPGQSVTISCAGTSSDVGSENYVSWYQQHPGKAPKLMIYQVNKRASGVPDRFSGSKSGNTASLTISGLQAEDEADYYCASYRSSDINIVFGGGTKLTVLGGGGSGGGGSGGGGSEVQLVESGGGLVQPGGSLRLSCAASGFTFSSYAMSWVRQAPGKGLEWVSTINSGTGHPYYADSVKGRFTISRDNSKNTLYLQMNSLRAEDTAVYYCAKNFFDGSWFLDPPAMDYWGQGTLVTVSSHHHHHH	Affinity increase	45.9
